Where do these numbers come from? They come from ChEMBL document CHEMBL4665734.

EXPERIMENT: Protein binding in mouse plasma
Format: ADME, cell-free
RECORDED CONDITIONS: read-out: PPB (converted)
Starred links: 1 amine or outer side, 2 acyl side, 3 side chain; linkers in the order of their positions; H or OH if unused. Non-standard residues stand in square brackets, D forms with d. Residues, ends and D or L forms follow the SMILES beside them. *: point of attachment. dAlaψ(CH2NBu)Nle = CCCC[C@@H](C(=O)[*:2])N(CCCC)C[C@@H](C)N[*:1]; X3 = C[C@H](CO[C@H](CC1CC2(CCC2)C1)[C@@H](C)C(=O)[*:2])N[*:1]; Cyclobutyl(trans-3-NH2) = N[C@H]1C[C@H](*)C1; X4 = CCCCCCN(CCN[*:1])[C@@H](C)C(=O)[*:2]; Gly(cHept) = N[C@H](C(=O)O)C1CCCCCC1; aThr = C[C@H](O)[C@H](N)C(=O)O; NMeL = CN[C@@H](CC(C)C)C(=O)O; Chg = N[C@H](C(=O)O)C1CCCCC1; NMeNva = CCC[C@H](NC)C(=O)O; Dap = NC[C@H](N)C(=O)O
MEASURED ENDPOINT: fraction unbound

Recorded fraction unbound of CCCC[C@H]1C(=O)N(C)[C@@H](CC(C)C)C(=O)N[C@@H](C2CCCCC2)C(=O)N[C@@H](CN)C(=O)N[C@@H]([C@H](C)O)C(=O)N[C@H](C)CN1CCCC (cyclo([Chg][Dap][aThr][dAlaψ(CH2NBu)Nle][NMeL])) , please. 0.004

Recorded fraction unbound of CCCCCCN1CCNC(=O)[C@H](CO[C@H]2C[C@H](N)C2)NC(=O)[C@H](CN)NC(=O)[C@H](C2CCCCC2)NC(=O)[C@H](CC(C)C)N(C)C(=O)[C@@H]1C (cyclo([Chg][Dap]S(Cyclobutyl(trans-3-NH2))[X4][NMeL])) , please. 0.03

Recorded fraction unbound of CCCC[C@H]1C(=O)N(C)[C@@H](CCC)C(=O)N[C@@H](C2CCCCC2)C(=O)N[C@@H](CN)C(=O)N[C@@H](CO[C@H]2C[C@H](N)C2)C(=O)N[C@H](C)CN1CCCC (cyclo([Chg][Dap]S(Cyclobutyl(trans-3-NH2))[dAlaψ(CH2NBu)Nle][NMeNva])) , please. 0.026

Recorded fraction unbound of CCC[C@H]1C(=O)N[C@@H](C2CCCCCC2)C(=O)N[C@@H](CN)C(=O)N[C@@H](CO[C@H]2C[C@H](N)C2)C(=O)N[C@H](C)CO[C@H](CC2CC3(CCC3)C2)[C@@H](C)C(=O)N1C (cyclo([Dap]S(Cyclobutyl(trans-3-NH2))[X3][NMeNva][Gly(cHept)])) , please. 0.007

###

Examples of compounds with documented MIC follow.
EXPERIMENT: Growth inhibition of Staphylococcus aureus USA300
Starred links: 1 amine or outer side, 2 acyl side, 3 side chain; linkers in the order of their positions; H or OH if unused. Non-standard residues stand in square brackets, D forms with d. Residues, ends and D or L forms follow the SMILES beside them. *: point of attachment. X6 = C[C@H](CO[C@H](CC1C[C@H]2CC[C@@H](C1)C2)[C@@H](C)C(=O)[*:2])N[*:1]; dAlaψ(CH2NBu)Nle = CCCC[C@@H](C(=O)[*:2])N(CCCC)C[C@@H](C)N[*:1]; X1 = CCCCCC[C@@H](OC[C@@H](C)N[*:1])[C@@H](C)C(=O)[*:2]; X9 = CCCCCC[C@@H](OCCN[*:1])[C@@H](C)C(=O)[*:2]; Cyclobutyl(trans-3-NH2) = N[C@H]1C[C@H](*)C1; Gly(cHept) = N[C@H](C(=O)O)C1CCCCCC1; aThr = C[C@H](O)[C@H](N)C(=O)O; NMeL = CN[C@@H](CC(C)C)C(=O)O; Chg = N[C@H](C(=O)O)C1CCCCC1; NMeNva = CCC[C@H](NC)C(=O)O; Propyl(3-NMe2) = CN(C)CCC*; hSer = N[C@@H](CCO)C(=O)O; X2 = NC[C@H]1C[C@H](*)C1; Dap = NC[C@H](N)C(=O)O; Propyl(3-NH2) = NCCC*; X12 = NCC(CN)*; X5 = NCCCNCCC*; X11 = NCCCC*
Give your result in µM as a bare value.

Previously resolved entries follow.
Recorded MIC of CCC[C@H]1C(=O)N[C@@H](C2CCCCCC2)C(=O)N[C@@H](CN)C(=O)N[C@@H](CO[C@H]2C[C@H](N)C2)C(=O)N[C@H](C)CO[C@H](CC2C[C@H]3CC[C@@H](C2)C3)[C@@H](C)C(=O)N1C (stereo partly drawn) (cyclo([Dap]S(Cyclobutyl(trans-3-NH2))[X6][NMeNva][Gly(cHept)])) , please. 50

Recorded MIC of CCCCCC[C@H]1OC[C@@H](C)NC(=O)[C@H](CO[C@H]2C[C@H](CN)C2)NC(=O)[C@H](CN)NC(=O)[C@H](C2CCCCCC2)NC(=O)[C@H](CCC)N(C)C(=O)[C@@H]1C (cyclo([Dap]S(X2)[X1][NMeNva][Gly(cHept)])) , please. 50

Recorded MIC of CCCC[C@H]1C(=O)N(C)[C@@H](CCC)C(=O)N[C@@H](C2CCCCC2)C(=O)N[C@@H](CN)C(=O)N[C@@H](CO[C@H]2C[C@H](N)C2)C(=O)N[C@H](C)CN1CCCC (cyclo([Chg][Dap]S(Cyclobutyl(trans-3-NH2))[dAlaψ(CH2NBu)Nle][NMeNva])) , please. 50

---
Recorded MIC of "CCCCCC[C@H]1OC[C@@H](C)NC(=O)[C@H]([C@H](C)O)NC(=O)[C@H](CN)NC(=O)[C@H](C2CCCCC2)NC(=O)[C@H](CC(C)C)N(C)C(=O)[C@@H]1C" , please. 71

Recorded MIC of CCCCCC[C@H]1OC[C@@H](C)NC(=O)[C@H](COCCCCN)NC(=O)[C@H](CN)NC(=O)[C@H](C2CCCCC2)NC(=O)[C@H](CC(C)C)N(C)C(=O)[C@@H]1C (cyclo([Chg][Dap]S(X11)[X1][NMeL])) , please. 56

Recorded MIC of "CCCCCC[C@H]1OC[C@@H](C)NC(=O)[C@H](COc2ccc(CCN)cc2)NC(=O)[C@H](CN)NC(=O)[C@H](C2CCCCC2)NC(=O)[C@H](CCC)N(C)C(=O)[C@@H]1C" , please. 25

Recorded MIC of CCCCCC[C@H]1OC[C@@H](C)NC(=O)[C@H](COC(CN)CN)NC(=O)[C@H](CN)NC(=O)[C@H](C2CCCCCC2)NC(=O)[C@H](CCC)N(C)C(=O)[C@@H]1C (cyclo([Dap]S(X12)[X1][NMeNva][Gly(cHept)])) , please. 50

Recorded MIC of CCC[C@H]1C(=O)N[C@@H](C2CCCCCC2)C(=O)N[C@@H](CN)C(=O)N[C@@H](COCCCNCCCN)C(=O)N[C@H](C)CO[C@H](CC2C[C@H]3CC[C@@H](C2)C3)[C@@H](C)C(=O)N1C (stereo partly drawn) (cyclo([Dap]S(X5)[X6][NMeNva][Gly(cHept)])) , please. 12

Recorded MIC of CCCCCC[C@H]1OC[C@@H](C)NC(=O)[C@H](COCCCN(C)C)NC(=O)[C@H](CN)NC(=O)[C@H](C2CCCCC2)NC(=O)[C@H](CC(C)C)N(C)C(=O)[C@@H]1C (cyclo([Chg][Dap]S(Propyl(3-NMe2))[X1][NMeL])) , please. 100

Recorded MIC of CCCCCC[C@H]1OC[C@@H](C)NC(=O)[C@H](CCOCCCN)NC(=O)[C@H](CN)NC(=O)[C@H](C2CCCCCC2)NC(=O)[C@H](CCC)N(C)C(=O)[C@@H]1C (cyclo([Dap][hSer](Propyl(3-NH2))[X1][NMeNva][Gly(cHept)])) , please. 100

Recorded MIC of CCCCCC[C@H]1OCCNC(=O)[C@H]([C@H](C)O)NC(=O)[C@H](CN)NC(=O)[C@H](C2CCCCC2)NC(=O)[C@H](CC(C)C)N(C)C(=O)[C@@H]1C (cyclo([Chg][Dap][aThr][X9][NMeL])) , please. 100

Recorded MIC of "CCCCCC[C@H]1C(=O)N(C)[C@@H](CC(C)C)C(=O)N[C@@H](C2CCCCC2)C(=O)N[C@@H](CN)C(=O)N[C@@H]([C@H](C)O)C(=O)NCCN1C" , please. 100
